Entries with their measured EC50, system Endothelial PAS domain-containing protein 1 (Homo sapiens):
property-measured: EC50 (nM)

(I) O=S1(=O)CC(O)c2c1ccc(Oc1cc(F)cc(Cl)c1)c2Br (stereo not given)
(II) O=S(=O)(c1ccc(Oc2cc(F)cc(Cl)c2)c(Br)c1)C(F)F
(III) O=S1(=O)c2ccc(Oc3cc(F)cc(Cl)c3)c(Br)c2C(O)C1(F)F (stereo not given)
(IV) N#Cc1cncc(Oc2ccc3c(c2C(F)F)C(O)C(F)(F)S3(=O)=O)c1 (stereo not given)
(V) O=S(=O)(c1ccc(Oc2cc(F)cc(Cl)c2)c(Br)c1)C(F)(F)F
# input Sort low-to-high on EC50, please. Sort the labels as requested; that list is your answer.
# output III, IV, II, V, I

###

fraction unbound at 4 h, 10 µM reference
assay: Protein binding in rat plasma at 10 uM after 4 hrs by LC-MS/MS analysis; assay type: ADME, cell-free; conditions: read-out: PPB (converted)
Lab note: jot down the number only; don't add units.

* CS(=O)(=O)c1ccc(Oc2cc(F)cc(C#N)c2)c2c1[C@H](O)C(F)(F)C2 | 0.29

Would you kindly look at the next entry?
# input Determine from records and report fraction unbound at 4 h, 10 µM for N#Cc1cc(F)cc(Oc2ccc3c(c2C(F)F)[C@@H](O)C(F)(F)S3(=O)=O)c1
# output 0.15

###

target: Cytochrome P450 2C19 (Homo sapiens, UniProt P33261)
Sequence (P33261 whole entry): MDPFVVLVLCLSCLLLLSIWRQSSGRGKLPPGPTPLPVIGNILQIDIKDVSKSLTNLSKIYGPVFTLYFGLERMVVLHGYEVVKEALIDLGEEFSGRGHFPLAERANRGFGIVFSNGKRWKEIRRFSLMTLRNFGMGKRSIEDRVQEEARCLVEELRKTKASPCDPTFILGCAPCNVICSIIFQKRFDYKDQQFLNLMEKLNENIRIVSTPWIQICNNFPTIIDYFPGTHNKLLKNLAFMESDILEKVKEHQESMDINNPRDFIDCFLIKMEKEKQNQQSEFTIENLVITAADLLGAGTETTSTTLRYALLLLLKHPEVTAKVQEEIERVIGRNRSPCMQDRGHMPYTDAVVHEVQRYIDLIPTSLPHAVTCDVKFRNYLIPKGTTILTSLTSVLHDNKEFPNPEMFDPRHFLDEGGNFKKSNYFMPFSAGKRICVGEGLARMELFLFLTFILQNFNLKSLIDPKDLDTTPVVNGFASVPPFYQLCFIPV
property-measured: pIC50
# pIC50 = -log10(concentration in molar units)

# input Determine from records and report pIC50 for CS(=O)(=O)c1ccc(Oc2cc(F)cc(C#N)c2)c2c1[C@H](O)C(F)(F)C2
# output 4.34

###

assay: Efflux ratio of apparent permeability in MDCK-MDR1 cells at 1 uM after 1 hr by LC/MS/MS analysis; assay type: ADME, cell-based, Canis lupus familiaris; settings: dog
property-measured: efflux ratio at 1 h, 1 µM
Lab note: jot down the number only; don't add units.

# input Determine from records and report efflux ratio at 1 h, 1 µM for N#Cc1cc(F)cc(Oc2ccc(S(=O)(=O)CF)c3c2CC(F)(F)[C@H]3O)c1
# output 1.04

###

test: Clearance in CD1 mouse at 3 mg/kg, iv by UPLC analysis; format: ADME, organism-based; conditions: in vivo
clearance reference
Reply numerically in mL/min/kg, unit not repeated.

Known results for compounds:
* N#Cc1cc(F)cc(Oc2ccc3c(c2C(F)F)[C@@H](O)C(F)(F)S3(=O)=O)c1 | 70.6
* O=S(=O)(c1ccc(Oc2cncc(Cl)c2)c2c1[C@H](O)C(F)(F)C2)C(F)F | 58.2
* N#Cc1cc(F)cc(Oc2ccc(S(=O)(=O)CF)c3c2CC(F)(F)[C@H]3O)c1 | 32.3
* CS(=O)(=O)c1ccc(Oc2cc(F)cc(C#N)c2)c2c1[C@H](O)C(F)(F)C2 | 29.2

Would you kindly look at the next entry?
# input Determine from records and report clearance for N#Cc1cc(F)cc(Oc2ccc(S(=O)(=O)C(F)F)c3c2CC(F)(F)[C@H]3O)c1
# output 34.3

###

molecular target: Endothelial PAS domain-containing protein 1 (Homo sapiens, UniProt Q99814)
Sequence (Q99814 whole entry, the tested form may be a part): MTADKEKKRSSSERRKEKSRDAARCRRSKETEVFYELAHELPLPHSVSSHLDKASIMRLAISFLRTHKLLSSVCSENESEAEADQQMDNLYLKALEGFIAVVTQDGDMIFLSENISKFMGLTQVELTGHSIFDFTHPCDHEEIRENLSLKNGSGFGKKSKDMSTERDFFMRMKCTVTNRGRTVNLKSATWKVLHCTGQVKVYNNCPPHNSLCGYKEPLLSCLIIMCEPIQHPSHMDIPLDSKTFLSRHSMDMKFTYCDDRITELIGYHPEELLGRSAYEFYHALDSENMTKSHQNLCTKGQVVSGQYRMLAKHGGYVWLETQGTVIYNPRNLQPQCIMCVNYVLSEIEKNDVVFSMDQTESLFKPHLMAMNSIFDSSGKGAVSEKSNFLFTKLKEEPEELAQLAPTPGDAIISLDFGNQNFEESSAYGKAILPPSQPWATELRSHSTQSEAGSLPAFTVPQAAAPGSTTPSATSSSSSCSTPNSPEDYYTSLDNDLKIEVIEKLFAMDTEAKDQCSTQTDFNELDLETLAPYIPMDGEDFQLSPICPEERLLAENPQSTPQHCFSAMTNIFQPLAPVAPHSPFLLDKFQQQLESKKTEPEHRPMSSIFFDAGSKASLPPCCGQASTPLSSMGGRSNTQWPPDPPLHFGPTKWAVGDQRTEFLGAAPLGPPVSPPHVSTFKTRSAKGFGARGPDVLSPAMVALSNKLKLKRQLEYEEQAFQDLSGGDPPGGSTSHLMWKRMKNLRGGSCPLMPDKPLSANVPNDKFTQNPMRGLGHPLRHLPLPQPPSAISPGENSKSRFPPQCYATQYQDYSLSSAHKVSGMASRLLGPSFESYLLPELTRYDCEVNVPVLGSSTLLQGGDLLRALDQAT
pIC50: −log10 of the molar value.
property-measured: pIC50

• CNS(=O)(=O)c1ccc(Nc2cc(F)cc(Cl)c2)c([N+](=O)[O-])c1 = 5.38
• N#Cc1cncc(Oc2ccc3c(c2C(F)F)C(O)C(F)(F)S3(=O)=O)c1 (stereo unspecified) = 6.85
• N#Cc1c(Oc2cc(F)cc(Cl)c2)ccc2c1C(O)C(F)(F)S2(=O)=O (stereo unspecified) = 7.31
• O=[N+]([O-])c1c(Nc2cc(F)cc(Cl)c2)ccc2nonc12 = 6.31
• O=S1(=O)CCC(O)c2c1ccc(Oc1cc(F)cc(F)c1)c2C(F)F (stereo unspecified) = 5.49

(a) CC(O)c1ccc(Nc2cc(F)cc(Cl)c2)c([N+](=O)[O-])c1 (stereo unspecified)
(b) O=S(=O)(c1ccc(Oc2cc(F)cc(Cl)c2)c(Br)c1)C(F)(F)F
(c) CS(=O)(=O)c1ccc(Oc2cc(F)cc(Cl)c2)c(Br)c1
# input Task for the reader: rank each entry by its pIC50, from the minimum upward. Sort the labels as requested; that list is your answer.
# output a, c, b
(a: 4.90, c: 5.36, b: 6.77)

(I) CC1(C)C(O)c2c(ccc(Oc3cc(F)cc(Cl)c3)c2Br)S1(=O)=O (stereo unspecified)
(II) O=S1(=O)CC(O)c2c1ccc(Oc1cc(F)cc(Cl)c1)c2Br (stereo unspecified)
(III) O=[N+]([O-])c1cc(C(F)(F)F)ccc1Nc1cc(F)cc(Cl)c1
(IV) NCc1c(S(=O)(=O)C(F)F)ccc(Oc2cc(F)cc(Cl)c2)c1Br
# input Task for the reader: rank each entry by its pIC50, from the minimum upward. Sort the labels as requested; that list is your answer.
# output I, II, IV, III
(I: 4.71, II: 5.62, IV: 6.15, III: 6.55)

(P) Cc1c(Oc2cc(F)cc(Cl)c2)ccc2c1C(O)C(F)(F)S2(=O)=O (stereo unspecified)
(Q) O=C(O)c1cc(S(=O)(=O)C(F)(F)F)ccc1Oc1cc(F)cc(Cl)c1
# input Pick one: P or Q . Which has the bigger pIC50 number? Field: selected label. Fill in the label of the entry you choose.
# output P
